Reference source for all entries: PubChem BioAssay

- ASSAY REMARKS: blockers of RIG-like receptor reporter activation – cell-based, Sendai virus stimulus, luciferase, 10K MLSCN set, TLR/RLR signaling modifier project, primary screen (AID 602276);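 further: firefly luciferase from ISG56 promoter only with Renilla not read in this screen; 0% = Sendai virus plus DMSO and 100% = medium plus DMSO without virus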
- TEST PARAMETERS: HEK293 RL24 IRF3 luciferase reporter, at 10 µM, stronger effect = higher value
ENDPOINT NAME: inhibition (%)
The reply should be a number in %, with the unit left off.

Observe how each entry below is paired with its result.
[[record]]
molecule = "O=C(OCc1cccs1)c1ccccc1NS(=O)(=O)c1ccc2c(c1)OCCO2"
reported_value = 3.25

[[record]]
molecule = "COc1cccc(N2CCN(c3c4c(nc5ncnn35)CCC4)CC2)c1"
reported_value = 0.933

[[record]]
molecule = "COc1ccccc1N(CC(=O)NCc1ccccc1)S(C)(=O)=O"
reported_value = -3.25

[[record]]
molecule = "CC1CN(CC(O)COc2ccc(C(C)C)cc2)CC(C)O1 (stereo not drawn)"
reported_value = -56.4

[[record]]
molecule = "CCn1c(CNc2ccc(C)cc2)nnc1SCC(=O)NCc1ccccc1"
reported_value = -9.51


Enquiry: Please supply the value of reported inhibition for the item CCOC(=O)C(CC)Sc1ncnc2nc[nH]c12 (stereo not drawn)
Return: 3.43

Enquiry: Please supply the value of reported inhibition for the item "NC(=O)c1c(NC(=O)CSc2nnc(-c3ccco3)n2-c2ccccc2)sc2c1CCC2"
Return: 30.1

Enquiry: Please supply the value of reported inhibition for the item "COc1ccccc1N1CCN(C(=O)c2ccc3nc(-c4ccco4)c(-c4ccco4)nc3c2)CC1"
Return: 16.2

Enquiry: Please supply the value of reported inhibition for the item "Cc1ccc(S(=O)(=O)N2CCOCC2)cc1C(=O)Nc1ccc(-c2cn3ccsc3n2)cc1"
Return: -3.48

Enquiry: Please supply the value of reported inhibition for the item "O=C(Cn1nc(-c2ccc(Cl)cc2)ccc1=O)NCCCN1CCN(Cc2ccccc2)CC1"
Return: -9.82

Enquiry: Please supply the value of reported inhibition for the item "COc1ccc(N(CC(=O)N2CCN(Cc3ccc4c(c3)OCO4)CC2)S(C)(=O)=O)cc1OC"
Return: 21.2

Enquiry: Please supply the value of reported inhibition for the item "COc1ccc(OC)c(NC(=O)C2CCN(c3cc(-c4ccccc4)nc4ncnn34)CC2)c1"
Return: 15

Enquiry: Please supply the value of reported inhibition for the item "N=c1sc2ccccc2n1-c1ccccc1"
Return: 15.3

Enquiry: Please supply the value of reported inhibition for the item "Cc1ccccc1CS(=O)(=O)CCC(=O)N1CCN(c2ccc(N3CCOCC3)nn2)CC1"
Return: 3.04

Enquiry: Please supply the value of reported inhibition for the item CN(c1ccccc1)C(c1ccc(F)cc1)c1nnnn1CC1CCCO1 (stereo not drawn)
Return: 16

Enquiry: Please supply the value of reported inhibition for the item Cn1c(C(=O)NCC2CCCO2)cc2c(=O)[nH]c3ccccc3c21 (stereo not drawn)
Return: -11.9

Enquiry: Please supply the value of reported inhibition for the item CCCc1ccc(C(C)NC(=O)c2cnccn2)cc1 (stereo not drawn)
Return: 15.6

Enquiry: Please supply the value of reported inhibition for the item "COC(=O)Cn1cc(C(=O)c2cccs2)c2ccccc21"
Return: 14.1

Enquiry: Please supply the value of reported inhibition for the item COc1ccc(N2C(=O)C3CCCN3C2c2ccc(F)cc2)cc1Cl (stereo not drawn)
Return: 7.49

Enquiry: Please supply the value of reported inhibition for the item "CC1(C)CC(=O)C(C=NCCO)=C(O)C1"
Return: 21.7

Enquiry: Please supply the value of reported inhibition for the item "COc1cc(C)nc(NS(=O)(=O)c2ccc(C)cc2)n1"
Return: 20.8

Enquiry: Please supply the value of reported inhibition for the item "CCn1c(SCC(=O)NCCc2ccc(Cl)cc2)nnc1-c1cccs1"
Return: -15.7

Enquiry: Please supply the value of reported inhibition for the item "Cc1nc(=S)n(-c2ccccc2)[nH]1"
Return: 11.3

====

- SYSTEM TESTED: Dual specificity protein phosphatase 6 (Homo sapiens) (UniProt Q16828)
- Sequence (Q16828 whole entry, looked up): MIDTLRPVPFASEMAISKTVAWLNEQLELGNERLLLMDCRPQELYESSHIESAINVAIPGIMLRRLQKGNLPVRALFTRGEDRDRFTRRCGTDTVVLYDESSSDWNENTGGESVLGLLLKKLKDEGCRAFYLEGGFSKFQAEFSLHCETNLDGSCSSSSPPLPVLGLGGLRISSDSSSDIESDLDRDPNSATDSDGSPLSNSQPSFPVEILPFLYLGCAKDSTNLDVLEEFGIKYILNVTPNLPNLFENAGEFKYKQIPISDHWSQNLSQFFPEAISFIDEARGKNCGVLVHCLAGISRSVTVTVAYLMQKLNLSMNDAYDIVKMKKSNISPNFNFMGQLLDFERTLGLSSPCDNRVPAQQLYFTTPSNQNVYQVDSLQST
- ASSAY REMARKS: Primary imaging screen for DUSP6 inhibitors that restore phospho-Erk in transfected HeLa cells, chemical complementation (AID 609);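 on inhibition: phospho-Erk level distribution per well compared with pooled transfected vehicle control wells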
- TEST PARAMETERS: HeLa MKP-3 transfected, phospho-Erk imaging KS statistic; at 10 µM; stronger effect = higher value; cells stimulated with TPA for 15 min
Binary call on inhibition: Fulfilled from 10% upward, Not fulfilled beneath that.

Field: example entries. Status: answers known.
[[record]]
compound = "CCOC(=O)C1=C(C)NC(C)=C(C(=O)OC)C1c1cccc([N+](=O)[O-])c1 (stereo unspecified)"
class_label = "Fulfilled"

[[record]]
compound = "CC(C)(C)NC[C@H](O)COc1nsnc1N1CCOCC1"
class_label = "Not fulfilled"

[[record]]
compound = "O=P(O)(c1ccccc1)c1ccccc1O"
class_label = "Not fulfilled"

[[record]]
compound = "CN(C)CCCN1c2ccccc2Sc2ccc(C(F)(F)F)cc21"
class_label = "Fulfilled"

[[record]]
compound = "O=c1n(CCCN2CCN(c3cccc(Cl)c3)CC2)nc2ccccn12"
class_label = "Not fulfilled"


Next:
Enquiry: // inclusive: inhibition at least 10%? input: "COc1ccc[nH]c1=O"
Return: Fulfilled

====

- ASSAY REMARKS: blockers of RIG-like receptor reporter activation – cell-based, Sendai virus stimulus, luciferase, 10K MLSCN set, TLR/RLR signaling modifier project, primary screen (AID 602276);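 further: firefly luciferase from ISG56 promoter only with Renilla not read in this screen; 0% = Sendai virus plus DMSO and 100% = medium plus DMSO without virus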
- TEST PARAMETERS: HEK293 RL24 IRF3 luciferase reporter, at 10 µM, stronger effect = higher value
ENDPOINT NAME: inhibition (%)
The reply should be a number in %, with the unit left off.

Observe how each entry below is paired with its result.
[[record]]
compound = "O=C(NC1CCCCC1)C1CC(O)CN1C(=O)OCc1ccccc1 (stereo unspecified)"
reported_value = 2.76

[[record]]
compound = "CC(C)C(=O)Nc1nnc(CCc2nnc(NC(=O)C(C)C)s2)s1"
reported_value = 14.6

[[record]]
compound = "c1cncc(-c2nnc(-c3ccco3)o2)c1"
reported_value = -1.51


Enquiry: Please supply the value of reported inhibition for the item "CN(C)S(=O)(=O)c1ccc(C(=O)N2CCC(c3nc4ccccc4o3)CC2)cc1"
Return: 10.5

Enquiry: Please supply the value of reported inhibition for the item COCCOC(=O)C1=C(C)Nc2ncnn2C1c1ccc(F)cc1 (stereo unspecified)
Return: 6.2

Enquiry: Please supply the value of reported inhibition for the item OCCN1CCN(CC(O)COc2ccc3ccccc3c2)CC1 (stereo unspecified)
Return: 11.6

====

- ASSAY REMARKS: Primary imaging screen for DUSP6 inhibitors that restore phospho-Erk in transfected HeLa cells, chemical complementation (AID 609)
- TEST PARAMETERS: HeLa MKP-3 transfected, phospho-Erk imaging KS statistic; measured here: cell density z-score; at 10 µM; cells stimulated with TPA for 15 min
ENDPOINT NAME: z-score
Format: numeric value only, no unit, no commentary.

[[record]]
compound = "CC1(C)CC(=O)C=C(N=CC2=C(O)CC(C)(C)CC2=O)C1"
reported_value = -0.899

[[record]]
compound = "CC(C)[N+]1(C)[C@@H]2CC[C@H]1CC(OC(=O)C(CO)c1ccccc1)C2 (stereo not given in full)"
reported_value = 1.04

[[record]]
compound = "CC(=O)OC[C@H]1O[C@@H](n2ncc(=O)[nH]c2=O)[C@H](OC(C)=O)[C@@H]1OC(C)=O"
reported_value = 1.58


Enquiry: Please supply the value of reported z-score for the item "CC(C)CCOc1ccc(Cl)cc1CN1CCOCC1"
Return: -1.08

Enquiry: Please supply the value of reported z-score for the item "COC(=O)Nc1nc2ccc(C(=O)c3ccccc3)cc2[nH]1"
Return: 1.8

====

Collected inhibition of aggregation values appear next to each entry.
- ASSAY REMARKS: reduction of polyQ htt aggregates in cells – imaging, exon1htt(103Q)mCFP cells, high-content imaging, primary screen (AID 483);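 further: compound exposure lasted 3 days before fixation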
- TEST PARAMETERS: exon1htt(103Q)mCFP cell line, aggregate imaging, at 2 µM; stronger effect = higher value
The reply should be a number in %, with the unit left off.

Observe how each entry below is paired with its result.
[[record]]
molecule = "Cc1ccc(S(=O)(=O)N[C@@H](C)C(=O)N2CCC(C(=O)N3CCC[C@H]3C(=O)O)CC2)cc1"
endpoint_name = "inhibition of aggregation"
reported_value = -14.8

[[record]]
molecule = "COC(=O)COc1ccc(S(=O)(=O)NCCC2=CCCCC2)cc1"
endpoint_name = "inhibition of aggregation"
reported_value = 29

[[record]]
molecule = "CCOC(=O)Nc1sc(=S)n(C)c1C"
endpoint_name = "inhibition of aggregation"
reported_value = -2.4


Okay, now this molecule:
Enquiry: Please supply the value of reported inhibition of aggregation for the item "Cc1ccc(C)c(Cn2c(=O)n(CCC(=O)NCc3ccco3)c(=O)c3sccc32)c1"
Return: 3.9

====

- ASSAY REMARKS: loss of swimming-algae plug formation – whole organism, Chlamydomonas reinhardtii, WT vs cilia-less mutant, absorbance, 96-well, primary screen (AID 463189);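 further: 0% = wild type cc124 cells in DMSO and 100% = ciliumless bld1 mutant cells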
- TEST PARAMETERS: Chlamydomonas reinhardtii gravitaxis, OD600 absorbance, 2 days; at 10 µM
The source made the active and inactive calls.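 Rule for the calls: active = inhibition at or above 50% relative to wild type and mutant plate controls; inactive = inhibition below 50%.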
// classify into active, inactive

[[record]]
molecule = "CC(N)=O"
class_label = "inactive"


Enquiry: For "CC(=O)SCC[N+](C)(C)C" , what call appears in the results of this test?
Return: inactive

Enquiry: For "CN(CCOC(=O)c1cccc(Br)c1)C(C)(C)C" , what call appears in the results of this test?
Return: inactive

Enquiry: For "NC[C@H](O)c1ccc(O)c(O)c1" , what call appears in the results of this test?
Return: inactive

Enquiry: For "N=C(N)SCCc1cnc[nH]1" , what call appears in the results of this test?
Return: inactive

Enquiry: For "CC[N+](CC)(CC)CCOc1cccc(OCC[N+](CC)(CC)CC)c1OCC[N+](CC)(CC)CC" , what call appears in the results of this test?
Return: inactive

Enquiry: For OC[C@H]1O[C@@H](n2cnc3c(NCCc4ccccc4)ncnc32)C(O)[C@H]1O (stereo not given in full) , what call appears in the results of this test?
Return: inactive

Enquiry: For "CC(=O)NCCc1ccc(O)c(O)c1" , what call appears in the results of this test?
Return: inactive

Enquiry: For "CCCc1c(OCCCOc2ccc(OCC(=O)O)cc2)ccc(C(C)=O)c1O" , what call appears in the results of this test?
Return: inactive

Enquiry: For "CCCCN1CCC(COC(=O)c2cc(Cl)c(N)c3c2OCCO3)CC1" , what call appears in the results of this test?
Return: inactive
